# Response listing for each entry below
Molecular target: WT Spike (SARS-CoV2)

# annotated cases, reported Response shown
• RBD-R3-E1-B3 Ab (Ab_32) scFv-Fc (scFv, V domains shown) VH: QVQLVQSGAEVKKPGESLKISCKGSGYSFTSYWIGWVRQMPGKGLEWMGIIYPGDSDTRYSPSFQGQVTISADKSISTAYLQWSSLKASDTAMYYCARGWQWHDYWGQGTLVTVSS VL: QTVVTQEPAVSVALGQTVRITCQGDSLRSYYASWYQQKPGQAPVLVVYDKDKRPSGIPDRFSGSTSGNTASLTITGAQAEDEADYYCNSRDRSDNHVVFGGGTKLTVL = 0.131
• Ab_26 scFv-Fc (scFv, V domains shown) VH: QVQLVQSGGGLVQPGRSLRLSCAASGFTFDDYAMHWVRQVPGKGLEWVSGIDWNSGVIGYADSVKGRFTISRDNAKNSLYLQMNSLRAEDTALYYCAKDAYSYGFLGAFDIWGQGTMVTVSS VL: LPVLTQPPSVSVAPGQTASITCGGDNIRTKGVHWYQQKPGQAPLLVIYYASDRPSGIPERFSGSSSGNTATLTISRVEAGDEADYYCQVWDSSSDLVVFGGGTTLTVL = 0.185

As a next step, examine the binder that follows.
Task: Note Response for the binder shown: Ab_21 scFv-Fc (scFv, V domains shown) VH: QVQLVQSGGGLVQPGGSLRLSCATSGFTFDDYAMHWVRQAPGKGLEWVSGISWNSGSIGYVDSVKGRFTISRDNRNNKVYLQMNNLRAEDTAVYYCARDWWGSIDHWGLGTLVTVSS VL: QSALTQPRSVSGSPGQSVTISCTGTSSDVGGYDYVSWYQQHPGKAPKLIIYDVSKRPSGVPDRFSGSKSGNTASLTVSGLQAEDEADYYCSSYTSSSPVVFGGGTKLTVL
Result: 0.147

These data points were gathered from patent US20240409617A1.
